- system tested: antibody used for epitope mapping in Example 5 (not named)
- assay text: HTRF competition vs biotinylated human IL-4Rα/Fc for Eu-cryptate antibody
Provide the reported pIC50 of each item.
Numbers only, as −log10 of the molar value.

{"columns": ["binder", "pIC50"],
 "data": [
  ["MoLoop4HuIL-4Rα (receptor) MKVLQEPTCVSDYMSISTCEWKMNGPTNCSTELRLLYQLVFLLSEAHTCIPENNGGAGCVCHLLMDDVVSADNYTLDLWAGQQLLWKGSFKPSEHVKPRAPGNLTVHTNVSDTLLLTWNNLYPSNNYLYNHLTYAVNIWSENDPADFRIYNVTYLEPSLRIAASTLKSGISYRARVRAWAQCYNTTWSEWSPSTKWHNSYREPFNPAFLYKVVGAADYKDDDDKAAHHHHHHHHHH", 9.18],
  ["EM19 (receptor) MKVLQEPTCVSDYMSISTCEWKMNGPTNCSTELRLLYQLMFLEFSENLTCIPENNGGAGCVCHLLMDDVVSADNYTLDLWAGQQLLWKGSFKPSEHVKPRAPGNLTVHTNVSDTLLLTWSNPYPPDNYLYNHLTYAVNIWSENDPADFRIYNVTYLEPSLRIAASTLKSGISYRARVRAWAQCYNTTWSEWSPSTKWHNSYREPFNPAFLYKVVGAADYKDDDDKAAHHHHHHHHHH", 8.35],
  ["EM21 (receptor) MKVLQEPTCVSDYMSISTCEWKMNGPTNCSTELRLLYQLMFFELSENLTCIPENNGGAGCVCHLLMDDVVSADNYTLDLWAGQQLLWKGSFKPSEHVKPRAPGNLTVHTNVSDTLLLTWSNPYPPDNYLYNHLTYAVNIWSENDPADFRIYNVTYLEPSLRIAASTLKSGISYRARVRAWAQCYNTTWSEWSPSTKWHNSYREPFNPAFLYKVVGAADYKDDDDKAAHHHHHHHHHH", 8.24]
]}

Please turn your attention to the following entry.
Ask: Answer with the recorded pIC50 for the binder listed here: MoLoop5HuIL-4Rα (receptor) MKVLQEPTCVSDYMSISTCEWKMNGPTNCSTELRLLYQLVFLLSEAHTCIPENNGGAGCVCHLLMDDVVSADNYTLDLWAGQQLLWKGSFKPSEHVKPRAPGNLTVHTNVSDTLLLTWSNPYPPDNYLYNHLTYAVNIWSENDPADFRIYNVTYLEPSLRIAASTLKSGISYRARVRAWSQILTGTWSEWSPSTKWHNSYREPFNPAFLYKVVGAADYKDDDDKAAHHHHHHHHHH
Reply: 8.85
